These measurements were taken from BigSolDB 2.1.

Conditions: in methanol, 318.25 K
REPORTED_ENDPOINT: solubility (mole fraction)
One number for each entry.

solubility (mole fraction) reading for "O=[PH](O)c1ccccc1" : 0.526

###

Settings: in water, 324.15 K
REPORTED_ENDPOINT: solubility (mole fraction)
Numbers only.

solubility (mole fraction) reading for "CP(=O)(O)c1ccccc1" : 0.0477

###

Settings: in water, 305.22 K
REPORTED_ENDPOINT: solubility (mole fraction)
Numbers only.

solubility (mole fraction) reading for "O=[PH](O)c1ccccc1" : 0.0159

###

Conditions: in ethanol, 308.15 K
REPORTED_ENDPOINT: solubility (mole fraction)
Answers are plain numbers.

solubility (mole fraction) reading for "c1ccc(OP2(Oc3ccccc3)=NP(Oc3ccccc3)(Oc3ccccc3)=NP(Oc3ccccc3)(Oc3ccccc3)=N2)cc1" : 0.011

###

Details: in THF, 318.45 K
REPORTED_ENDPOINT: solubility (mole fraction)
Numbers only.

solubility (mole fraction) reading for "c1ccc(OP2(Oc3ccccc3)=NP(Oc3ccccc3)(Oc3ccccc3)=NP(Oc3ccccc3)(Oc3ccccc3)=N2)cc1" : 0.285

###

Details: in 2-ethoxyethanol, 348.25 K
REPORTED_ENDPOINT: solubility (mole fraction)
One number for each entry.

solubility (mole fraction) reading for "O=[PH](O)c1ccccc1" : 0.372

###

Conditions: in 2-ethoxyethanol, 298.25 K
REPORTED_ENDPOINT: solubility (mole fraction)
Give bare numbers.

solubility (mole fraction) reading for "O=[PH](O)c1ccccc1" : 0.148

###

Conditions: in THF, 323.15 K
REPORTED_ENDPOINT: solubility (mole fraction)

solubility (mole fraction) reading for "c1ccc(OP2(Oc3ccccc3)=NP(Oc3ccccc3)(Oc3ccccc3)=NP(Oc3ccccc3)(Oc3ccccc3)=N2)cc1" : 0.315

###

Conditions: in 2-ethoxyethanol, 303.25 K
REPORTED_ENDPOINT: solubility (mole fraction)
Give bare numbers.

solubility (mole fraction) reading for "c1ccc(OP2(Oc3ccccc3)=NP(Oc3ccccc3)(Oc3ccccc3)=NP(Oc3ccccc3)(Oc3ccccc3)=N2)cc1" : 0.0081

###

Please respond with reported solubility (mole fraction) for every item in the list.
Settings: in dichloromethane, 293.35 K
Answers are plain numbers.

QUERY_SMILES: O=[PH](O)c1ccccc1
solubility (mole fraction): 0.0386

--- query ---
solubility (mole fraction) reading for "c1ccc(OP2(Oc3ccccc3)=NP(Oc3ccccc3)(Oc3ccccc3)=NP(Oc3ccccc3)(Oc3ccccc3)=N2)cc1" : 0.099

###

Conditions: in water, 312.84 K
REPORTED_ENDPOINT: solubility (mole fraction)

solubility (mole fraction) reading for "O=[PH](O)c1ccccc1" : 0.0305

###

Details: in toluene, 318.65 K
REPORTED_ENDPOINT: solubility (mole fraction)
Give bare numbers.

solubility (mole fraction) reading for "c1ccc(OP2(Oc3ccccc3)=NP(Oc3ccccc3)(Oc3ccccc3)=NP(Oc3ccccc3)(Oc3ccccc3)=N2)cc1" : 0.123

###

Details: in ethanol, 318.75 K
REPORTED_ENDPOINT: solubility (mole fraction)

solubility (mole fraction) reading for "c1ccc(OP2(Oc3ccccc3)=NP(Oc3ccccc3)(Oc3ccccc3)=NP(Oc3ccccc3)(Oc3ccccc3)=N2)cc1" : 0.0129

###

Please respond with reported solubility (mole fraction) for every item in the list.
Conditions: in 2-ethoxyethanol, 353.15 K
Answers are plain numbers.

QUERY_SMILES: CP(=O)(O)c1ccccc1
solubility (mole fraction): 0.751

--- query ---
solubility (mole fraction) reading for "c1ccc(OP2(Oc3ccccc3)=NP(Oc3ccccc3)(Oc3ccccc3)=NP(Oc3ccccc3)(Oc3ccccc3)=N2)cc1" : 0.0478

###

Conditions: in diethyl ether, 299.05 K
REPORTED_ENDPOINT: solubility (mole fraction)

solubility (mole fraction) reading for "c1ccc(OP2(Oc3ccccc3)=NP(Oc3ccccc3)(Oc3ccccc3)=NP(Oc3ccccc3)(Oc3ccccc3)=N2)cc1" : 0.014

###

Please respond with reported solubility (mole fraction) for every item in the list.
Conditions: in 2-ethoxyethanol, 298.15 K
Give bare numbers.

QUERY_SMILES: CP(=O)(O)c1ccccc1
solubility (mole fraction): 0.252

--- query ---
solubility (mole fraction) reading for "c1ccc(OP2(Oc3ccccc3)=NP(Oc3ccccc3)(Oc3ccccc3)=NP(Oc3ccccc3)(Oc3ccccc3)=N2)cc1" : 0.0065

###

Details: in toluene, 333.55 K
REPORTED_ENDPOINT: solubility (mole fraction)
Numbers only.

solubility (mole fraction) reading for "O=[PH](O)c1ccccc1" : 0.199

###

Details: in ethyl acetate, 328.25 K
REPORTED_ENDPOINT: solubility (mole fraction)
One number for each entry.

solubility (mole fraction) reading for "c1ccc(OP2(Oc3ccccc3)=NP(Oc3ccccc3)(Oc3ccccc3)=NP(Oc3ccccc3)(Oc3ccccc3)=N2)cc1" : 0.159

###

Conditions: in chloroform, 318.35 K
REPORTED_ENDPOINT: solubility (mole fraction)
One number for each entry.

solubility (mole fraction) reading for "O=[PH](O)c1ccccc1" : 0.315

###

Settings: in 2-ethoxyethanol, 303.45 K
REPORTED_ENDPOINT: solubility (mole fraction)
One number for each entry.

solubility (mole fraction) reading for "O=[PH](O)c1ccccc1" : 0.165

###

Settings: in water, 323.35 K
REPORTED_ENDPOINT: solubility (mole fraction)
Give bare numbers.

solubility (mole fraction) reading for "O=[PH](O)c1ccccc1" : 0.0572

###

Conditions: in ethyl acetate, 313.25 K
REPORTED_ENDPOINT: solubility (mole fraction)
Answers are plain numbers.

solubility (mole fraction) reading for "c1ccc(OP2(Oc3ccccc3)=NP(Oc3ccccc3)(Oc3ccccc3)=NP(Oc3ccccc3)(Oc3ccccc3)=N2)cc1" : 0.0983

###

Details: in water, 343.15 K
REPORTED_ENDPOINT: solubility (mole fraction)

solubility (mole fraction) reading for "O=[PH](O)c1ccccc1" : 0.208

###

Conditions: in ethanol, 300.95 K
REPORTED_ENDPOINT: solubility (mole fraction)
Answers are plain numbers.

solubility (mole fraction) reading for "c1ccc(OP2(Oc3ccccc3)=NP(Oc3ccccc3)(Oc3ccccc3)=NP(Oc3ccccc3)(Oc3ccccc3)=N2)cc1" : 0.0099

###

Settings: in dichloromethane, 310.35 K
REPORTED_ENDPOINT: solubility (mole fraction)
One number for each entry.

solubility (mole fraction) reading for "c1ccc(OP2(Oc3ccccc3)=NP(Oc3ccccc3)(Oc3ccccc3)=NP(Oc3ccccc3)(Oc3ccccc3)=N2)cc1" : 0.219

###

Settings: in ethyl acetate, 303.25 K
Please respond with reported solubility (mole fraction) for every item in the list.
One number for each entry.

QUERY_SMILES: c1ccc(OP2(Oc3ccccc3)=NP(Oc3ccccc3)(Oc3ccccc3)=NP(Oc3ccccc3)(Oc3ccccc3)=N2)cc1
solubility (mole fraction): 0.0699

--- query ---
solubility (mole fraction) reading for "O=[PH](O)c1ccccc1" : 0.0275

###

Conditions: in ethyl acetate, 343.25 K
REPORTED_ENDPOINT: solubility (mole fraction)

solubility (mole fraction) reading for "CP(=O)(O)c1ccccc1" : 0.428

###

Details: in toluene, 318.15 K
REPORTED_ENDPOINT: solubility (mole fraction)

solubility (mole fraction) reading for "O=[PH](O)c1ccccc1" : 0.0934

###

Conditions: in 2-ethoxyethanol, 318.25 K
REPORTED_ENDPOINT: solubility (mole fraction)

solubility (mole fraction) reading for "O=[PH](O)c1ccccc1" : 0.227

###

Details: in dichloromethane, 288.15 K
REPORTED_ENDPOINT: solubility (mole fraction)
Give bare numbers.

solubility (mole fraction) reading for "O=[PH](O)c1ccccc1" : 0.0292

###

Settings: in dichloromethane, 308.35 K
REPORTED_ENDPOINT: solubility (mole fraction)
Give bare numbers.

solubility (mole fraction) reading for "CP(=O)(O)c1ccccc1" : 0.235

###

Details: in toluene, 313.25 K
REPORTED_ENDPOINT: solubility (mole fraction)

solubility (mole fraction) reading for "O=[PH](O)c1ccccc1" : 0.0652

###

Conditions: in dichloromethane, 296.25 K
REPORTED_ENDPOINT: solubility (mole fraction)

solubility (mole fraction) reading for "O=[PH](O)c1ccccc1" : 0.0458

###

Conditions: in ethyl acetate, 313.45 K
REPORTED_ENDPOINT: solubility (mole fraction)

solubility (mole fraction) reading for "O=[PH](O)c1ccccc1" : 0.0494

###

Settings: in dichloromethane, 300.35 K
REPORTED_ENDPOINT: solubility (mole fraction)
Numbers only.

solubility (mole fraction) reading for "c1ccc(OP2(Oc3ccccc3)=NP(Oc3ccccc3)(Oc3ccccc3)=NP(Oc3ccccc3)(Oc3ccccc3)=N2)cc1" : 0.139

###

Conditions: in ethanol, 298.25 K
REPORTED_ENDPOINT: solubility (mole fraction)
One number for each entry.

solubility (mole fraction) reading for "c1ccc(OP2(Oc3ccccc3)=NP(Oc3ccccc3)(Oc3ccccc3)=NP(Oc3ccccc3)(Oc3ccccc3)=N2)cc1" : 0.0096

###

Settings: in THF, 328.25 K
REPORTED_ENDPOINT: solubility (mole fraction)
Answers are plain numbers.

solubility (mole fraction) reading for "c1ccc(OP2(Oc3ccccc3)=NP(Oc3ccccc3)(Oc3ccccc3)=NP(Oc3ccccc3)(Oc3ccccc3)=N2)cc1" : 0.346
